# assay.target: BRCA2 peptide/HLA-A*02:01 complex (recombinant) (human)
# assay.details: SPR
readout.kind: binding result

# binder, readout.kind, endpoint.result
records = [
    ("AS170036 VL1VH1-VHG108N (scFv) scFv: QSALTQPRSVSGSPGQSVTISCAGTSSDVGSENYVSWYQQHPGKAPKLMIYQVNKRASGVPDRFSGSKSGNTASLTISGLQAEDEADYYCASYRSSDHNIVFGGGTKLTVLGGGGSGGGGSGGGGSEVQLVESGGGLVQPGGSLRLSCAASGFTFSSYAMSWVRQAPGKGLEWVSTINSGTGSPYYADSVKGRFTISRDNSKNTLYLQMNSLRAEDTAVYYCAKNFFDGSWFLNPPAMDYWGQGTLVTVSSHHHHHH", "binding result", "no binding"),
    ("AS170036 VL1VH1-VHS57R (scFv) scFv: QSALTQPRSVSGSPGQSVTISCAGTSSDVGSENYVSWYQQHPGKAPKLMIYQVNKRASGVPDRFSGSKSGNTASLTISGLQAEDEADYYCASYRSSDHNIVFGGGTKLTVLGGGGSGGGGSGGGGSEVQLVESGGGLVQPGGSLRLSCAASGFTFSSYAMSWVRQAPGKGLEWVSTINSGTGRPYYADSVKGRFTISRDNSKNTLYLQMNSLRAEDTAVYYCAKNFFDGSWFLGPPAMDYWGQGTLVTVSSHHHHHH", "binding result", "no binding"),
]
